Some molecules, each annotated with its measured half-life at 1 µM.
Test: Half life in human liver microsomes at 1 uM by LC-MS/MS analysis
Assay type: ADME
Kindly answer with a numeric value in h, unit omitted.

Input Cc1c(Cl)nc(NC(=O)NC(C)(C)C)c(=O)n1C(C(=O)Nc1ccccc1C(=O)NS(=O)(=O)c1ccc(C(F)(F)F)cc1)c1ccccc1 (racemic) . Output half-life at 1 µM: 0.9

More entries:
Input CC(C)(C)NC(=O)Nc1nc(Cl)c(COCc2ccccc2)n(CC(=O)Nc2ccccc2C(=O)NS(=O)(=O)c2ccc(C(F)(F)F)cc2)c1=O . Output half-life at 1 µM: 1.35

###

Assay: Inhibition of full-length wild-type HCV NS3 protease
Set-up: species or system Hepacivirus hominis
MEASURED_ENDPOINT: Ki (µM)
Kindly answer with a numeric value in µM, unit omitted.

Here's what some known entries look like.
Input CC(C)(C)NC(=O)Nc1nc(Cl)c(-c2ccc(-c3cccnc3)cc2)n(CC(=O)Nc2ccccc2C(=O)NS(=O)(=O)c2ccc(C(F)(F)F)cc2)c1=O . Output Ki: 0.44

Input CC(C)(C)NC(=O)Nc1nc(Cl)c(Cc2ccc(Br)cc2)n(CC(=O)Nc2ccccc2C(=O)NS(=O)(=O)c2ccc(C(F)(F)F)cc2)c1=O . Output Ki: 0.44

More entries:
Input CC(C)(C)NC(=O)Nc1nc(Cl)c(-c2ccc(Br)cc2)n(CC(=O)Nc2ccccc2C(=O)NS(=O)(=O)c2ccc(C(F)(F)F)cc2)c1=O . Output Ki: 0.38

Input CCC[C@H](NC(=O)[C@@H]1[C@H]2CCC[C@H]2CN1C(=O)[C@@H](NC(=O)[C@@H](NC(=O)c1cnccn1)C1CCCCC1)C(C)(C)C)C(=O)C(=O)NC1CC1 . Output Ki: 0.015

Input Cc1c(Cl)nc(NC(=O)NC(C)(C)C)c(=O)n1C(C(=O)NC(CC1CCC1)C(=O)C(N)=O)c1ccccc1 (stereo unspecified) . Output Ki: 6.2

Input CC(C)(C)NC(=O)Nc1nc(Cl)c(Cc2cccc3ccccc23)n(CC(=O)Nc2ccccc2C(=O)NS(=O)(=O)c2ccc(C(F)(F)F)cc2)c1=O . Output Ki: 0.29

###

Experiment: Solubility of the compound in phosphate buffered saline at pH 7.4 after 1 hr by LC-MS/MS analysis
Type: physicochemical
MEASURED_ENDPOINT: solubility at 1 h (µM)
Kindly answer with a numeric value in µM, unit omitted.

Here's what some known entries look like.
Input CC(C)(C)NC(=O)Nc1nc(Cl)c(COCc2ccccc2)n(CC(=O)Nc2ccccc2C(=O)NS(=O)(=O)c2ccc(C(F)(F)F)cc2)c1=O . Output solubility at 1 h: 22

Input CCCCCc1c(Cl)nc(NC(=O)NC(C)(C)C)c(=O)n1CC(=O)Nc1ccccc1C(=O)NS(=O)(=O)c1ccc(C(F)(F)F)cc1 . Output solubility at 1 h: 21

Moving on to the next compound.
Input CC(C)(C)NC(=O)Nc1nc(Cl)c(-c2ccc(-c3cccnc3)cc2)n(CC(=O)Nc2ccccc2C(=O)NS(=O)(=O)c2ccc(C(F)(F)F)cc2)c1=O . Output solubility at 1 h: 53

###

Some compounds, each annotated with its measured solubility at 1 h.
Experiment: Solubility of the compound in phosphate buffered saline at pH 7.4 after 1 hr by LC-MS/MS analysis
Assay type: physicochemical

Input CC(C)(C)NC(=O)Nc1nc(Cl)c(CCC2CCCCC2)n(CC(=O)Nc2ccccc2C(=O)NS(=O)(=O)c2ccc(C(F)(F)F)cc2)c1=O . Output solubility at 1 h: 31 µM

Input CC(C)(C)NC(=O)Nc1nc(Cl)c(CCc2ccccc2)n(CC(=O)Nc2ccccc2C(=O)NS(=O)(=O)c2ccc(C(F)(F)F)cc2)c1=O . Output solubility at 1 h: 23 µM

Input Cc1c(Cl)nc(NC(=O)NC(C)(C)C)c(=O)n1C(C(=O)Nc1ccccc1C(=O)NS(=O)(=O)c1ccc(C(F)(F)F)cc1)c1ccccc1 (racemic) . Output solubility at 1 h: 38 µM

###

Some compounds, each annotated with its measured pKi.
Assay: Inhibition of full-length wild-type HCV NS3 protease
Parameters: species or system Hepacivirus hominis
pKi (log units): -log10 of the concentration in mol/L.

Here's what some known entries look like.
Input CC(C)(C)NC(=O)Nc1nc(Cl)cn(CC(=O)Nc2ccccc2C(=O)NS(=O)(=O)c2ccc(C(F)(F)F)cc2)c1=O . Output pKi: 5.72

Input CC(C)(C)NC(=O)Nc1nc(Cl)c(-c2ccccc2-c2cccnc2)n(CC(=O)Nc2ccccc2C(=O)NS(=O)(=O)c2ccc(C(F)(F)F)cc2)c1=O . Output pKi: 5.68

Moving on to the next compound.
Input CC(C)(C)NC(=O)Nc1nc(Cl)c(CCCc2ccccc2)n(CC(=O)Nc2ccccc2C(=O)NS(=O)(=O)c2ccc(C(F)(F)F)cc2)c1=O . Output pKi: 6.85

###

Test: Inhibition of full-length wild-type HCV NS3 protease
Parameters: species or system Hepacivirus hominis
Some compounds, each annotated with its measured Ki.
Kindly answer with a numeric value in µM, unit omitted.

Here's what some known entries look like.
Input CC(C)(C)NC(=O)Nc1nc(Cl)c(COCc2ccccc2)n(CC(=O)Nc2ccccc2C(=O)NS(=O)(=O)c2ccc(C(F)(F)F)cc2)c1=O . Output Ki: 0.56

Input CC(C)(C)NC(=O)Nc1nc(Cl)c(Cc2cccc(Br)c2)n(CC(=O)Nc2ccccc2C(=O)NS(=O)(=O)c2ccc(C(F)(F)F)cc2)c1=O . Output Ki: 0.29

Input CCCCCc1c(Cl)nc(NC(=O)NC(C)(C)C)c(=O)n1CC(=O)Nc1ccccc1C(=O)NS(=O)(=O)c1ccc(C(F)(F)F)cc1 . Output Ki: 0.16

More entries:
Input CC(C)(C)NC(=O)Nc1nc(Cl)c(-c2ccccc2Br)n(CC(=O)Nc2ccccc2C(=O)NS(=O)(=O)c2ccc(C(F)(F)F)cc2)c1=O . Output Ki: 0.4

Where do these numbers come from? They come from ChEMBL document CHEMBL3124833.
